Conditions: 303.15 K; 100 kPa; Liquid; Capillary tube (Ostwald / Ubbelohde) method
The following compounds are listed with their measured viscosity values.
Express the result in mPa·s but write the number alone.

Check out these entries, answers already filled in.
{"compound": "OCCc1ccccc1", "measured-result": 9.045}
{"compound": "NCCO", "measured-result": 14.42}
{"compound": "OCCCl [1-chloro-2-hydroxyethane]", "measured-result": 2.578}

Now look at this one.
Query :: What value of viscosity has been recorded for this entry: Nc1cccc(Cl)c1
Result :: 4.255

====

Catalogue of mass density values
Details: 313.15 K; 100 kPa; Liquid; Vibrating tube method
Numbers after ± are expanded uncertainties.

Guide cases for mass density, answers given:
{"compound": "OCCc1ccccc1", "measured-result": "1004.84 ± 4 kg/m3"}
{"compound": "Nc1cccc(Cl)c1", "measured-result": "1196.02 ± 4 kg/m3"}

Query :: Consider the compound shown here: OCCCl [1-chloro-2-hydroxyethane] What is its recorded mass density?
Result :: 1178.05 ± 4 kg/m3

Query :: Quick check: mass density of NCCO ?
Result :: 1000.74 ± 4 kg/m3

====

Details: 318.15 K; 100 kPa; Liquid; Capillary tube (Ostwald / Ubbelohde) method
± gives the expanded uncertainty stated by the source.
// values below are reported viscosity
Enter the number, and then the unit.

{"compound": "NCCO", "viscosity": "7.558 ± 1 mPa·s"}

Query :: Dear colleague, I am looking for the recorded viscosity of the following compound: OCCc1ccccc1
Result :: 4.984 ± 1 mPa·s

Query :: Entry OCCCl [1-chloro-2-hydroxyethane] has what viscosity?
Result :: 1.564 mPa·s

Query :: Given Nc1cccc(Cl)c1 , state its recorded viscosity.
Result :: 3.022 ± 1 mPa·s

====

Conditions: 318.15 K; 100 kPa; Liquid; Vibrating tube method
Catalogue of mass density readings, one per entry.
Numeric only. Scale: kg/m3

Query :: Which value of mass density has been reported for Nc1cccc(Cl)c1 in the records?
Result :: 1191.25

Query :: Look up mass density: OCCc1ccccc1
Result :: 1000.94

Query :: Tell me the measured mass density of OCCCl [1-chloro-2-hydroxyethane] , please.
Result :: 1170.87

Query :: Which mass density value is on record for NCCO ?
Result :: 996.04
